The values you see were collected from ChEMBL document CHEMBL2417369.

- Measured On: MAP kinase-activated protein kinase 5 (Homo sapiens)
- Sequence (whole entry): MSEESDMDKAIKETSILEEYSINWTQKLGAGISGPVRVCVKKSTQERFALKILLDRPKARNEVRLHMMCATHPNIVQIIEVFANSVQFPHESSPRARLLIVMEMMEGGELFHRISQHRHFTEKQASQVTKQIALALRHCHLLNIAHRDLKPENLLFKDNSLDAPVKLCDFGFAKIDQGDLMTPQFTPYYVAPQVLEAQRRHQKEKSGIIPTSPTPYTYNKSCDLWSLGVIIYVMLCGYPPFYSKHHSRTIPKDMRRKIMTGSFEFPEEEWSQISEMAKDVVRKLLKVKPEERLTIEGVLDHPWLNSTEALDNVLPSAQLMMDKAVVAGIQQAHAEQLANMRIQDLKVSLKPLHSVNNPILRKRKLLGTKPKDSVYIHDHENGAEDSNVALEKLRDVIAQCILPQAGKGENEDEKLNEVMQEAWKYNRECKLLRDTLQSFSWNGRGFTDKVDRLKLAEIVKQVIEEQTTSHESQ
- Experiment Summary: Inhibition of MAPKAPK5 (unknown origin) at 30 uM by microfluidic mobility shift assay relative to control
// reported inhibition per item
Readout: inhibition (%)

In [3]: df
Out[3]:
                                    compound     readout  endpoint_value
 0  O=S(=O)(c1cccc2cnccc12)N1CCC2(CCCCN2)CC1  inhibition              25
 1  c1nc(N2CCCC3(CCCNC3)C2)c2nc[nH]c2n1 (stereo unspecified)  inhibition               8
 2       c1nc(N2CCC3(CCCCO3)CC2)c2nc[nH]c2n1  inhibition              24
 3  O=S(=O)(c1cccc2cnccc12)N1CCC2(CC1)CC(O)CCN2 (racemic)  inhibition              18
 4       c1nc(N2CCC3(CCCNC3)CC2)c2nc[nH]c2n1  inhibition              51
 5  O=S(=O)(c1cccc2cnccc12)N1CCCC2(CCNCC2)C1  inhibition               0
 6  CN(C)C(=O)C1CCC2(CCN(c3ncnc4[nH]cnc34)CC2)NC1 (racemic)  inhibition              18
 7  OC1CCNC2(CCN(c3ncnc4[nH]cnc34)CC2)C1 (racemic)  inhibition              32
 8  O=S(=O)(c1cccc2cnccc12)N1CCCC2(CCCNC2)C1 (stereo unspecified)  inhibition               5
 9  O=C(C1CCC2(CCN(c3ncnc4[nH]cnc34)CC2)NC1)N1CCOCC1 (racemic)  inhibition              14
10   O=S(=O)(c1cccc2cnccc12)N1CCC2(CCNC2)CC1  inhibition              18
11  CNC(=O)C1CCC2(CCN(c3ncnc4[nH]cnc34)CC2)NC1 (racemic)  inhibition              21
12  COC(=O)C1CCC2(CCN(c3ncnc4[nH]cnc34)CC2)NC1 (racemic)  inhibition              21
13  c1ccc(C2CCNC3(CCN(c4ncnc5[nH]cnc45)CC3)C2)cc1 (racemic)  inhibition              18
14  c1ccc(C2CCC3(CCN(c4ncnc5[nH]cnc45)CC3)NC2)cc1 (stereo unspecified)  inhibition              23
15     O=S(=O)(c1cccc2cnccc12)N1CCCC12CCNCC2  inhibition               7

----------
Property: inhibition; scope: individual molecules
- Measured On: RAC-alpha serine/threonine-protein kinase (Homo sapiens)
- Sequence (P31749 whole entry): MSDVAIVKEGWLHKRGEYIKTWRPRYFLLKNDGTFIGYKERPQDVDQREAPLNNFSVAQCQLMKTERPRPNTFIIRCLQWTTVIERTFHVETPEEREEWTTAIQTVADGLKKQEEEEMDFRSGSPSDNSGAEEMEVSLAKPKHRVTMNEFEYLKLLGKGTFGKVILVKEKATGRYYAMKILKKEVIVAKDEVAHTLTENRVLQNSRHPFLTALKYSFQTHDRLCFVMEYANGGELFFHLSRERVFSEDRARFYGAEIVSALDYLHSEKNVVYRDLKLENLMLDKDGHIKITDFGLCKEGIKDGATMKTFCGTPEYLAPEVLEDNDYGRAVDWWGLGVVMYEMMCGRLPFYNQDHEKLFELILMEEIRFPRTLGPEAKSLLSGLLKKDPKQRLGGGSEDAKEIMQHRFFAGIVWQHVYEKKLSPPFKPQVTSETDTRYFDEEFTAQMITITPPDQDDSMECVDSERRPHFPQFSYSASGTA
- Experiment Summary: Inhibition of AKT1 (unknown origin) at 30 uM by microfluidic mobility shift assay relative to control
Readout: inhibition (%)

                                    molecule  endpoint_value
 0  O=S(=O)(c1cccc2cnccc12)N1CCCC2(CCCNC2)C1 (stereo unspecified)              30
 1  O=S(=O)(c1cccc2cnccc12)N1CCCC2(CCNCC2)C1              24
 2  O=S(=O)(c1cccc2cnccc12)N1CCC2(CC1)CC(O)CCN2 (racemic)              36
 3       c1nc(N2CCC3(CCCOC3)CC2)c2nc[nH]c2n1              25
 4  O=S(=O)(c1cccc2cnccc12)N1CCC2(CCCNC2)CC1               0
 5  O=S(=O)(c1cccc2cnccc12)N1CCC2(CCC(O)CN2)CC1 (racemic)              21
 6     O=S(=O)(c1cccc2cnccc12)N1CCCC12CCNCC2              27
 7       c1nc(N2CCCC3(CCNCC3)C2)c2nc[nH]c2n1              85
 8  CN(C)C(=O)C1CCC2(CCN(c3ncnc4[nH]cnc34)CC2)NC1 (racemic)              69
 9        c1nc(N2CCC3(CCNC3)CC2)c2nc[nH]c2n1              94
10    NC1(Cc2ccccc2)CCN(c2ncnc3[nH]cnc23)CC1              93

----------
Catalogue of molecules with associated inhibition
- Measured On: Serine/threonine-protein kinase D2 (Homo sapiens)
- Experiment Summary: Inhibition of PKD2 (unknown origin) at 30 uM by microfluidic mobility shift assay relative to control
Readout: inhibition

>>> df
                                    molecule     readout  endpoint_value
 0  c1ccc(C2CCNC3(CCN(c4ncnc5[nH]cnc45)CC3)C2)cc1 (racemic)  inhibition             71%
 1       c1nc(N2CCCC3(CCNCC3)C2)c2nc[nH]c2n1  inhibition             55%
 2  O=S(=O)(c1cccc2cnccc12)N1CCCC2(CCNCC2)C1  inhibition             21%
 3  O=S(=O)(c1cccc2cnccc12)N1CCC2(CCC(O)CN2)CC1 (racemic)  inhibition             64%
 4   O=S(=O)(c1cccc2cnccc12)N1CCC2(CCCN2)CC1  inhibition             81%
 5   O=S(=O)(c1cccc2cnccc12)N1CCC2(CCNC2)CC1  inhibition             19%
 6    NC1(Cc2ccccc2)CCN(c2ncnc3[nH]cnc23)CC1  inhibition             53%
 7  CNC(=O)C1CCC2(CCN(c3ncnc4[nH]cnc34)CC2)NC1 (racemic)  inhibition             35%
 8  NC1(Cc2ccccc2)CCN(S(=O)(=O)c2cccc3cnccc23)CC1  inhibition             16%
 9       c1nc(N2CCC3(CCCCO3)CC2)c2nc[nH]c2n1  inhibition             40%
10  OC1CCC2(CCN(c3ncnc4[nH]cnc34)CC2)NC1 (racemic)  inhibition             48%

----------
- Measured On: Mitogen-activated protein kinase 3 (Homo sapiens)
- Sequence (P27361 whole entry): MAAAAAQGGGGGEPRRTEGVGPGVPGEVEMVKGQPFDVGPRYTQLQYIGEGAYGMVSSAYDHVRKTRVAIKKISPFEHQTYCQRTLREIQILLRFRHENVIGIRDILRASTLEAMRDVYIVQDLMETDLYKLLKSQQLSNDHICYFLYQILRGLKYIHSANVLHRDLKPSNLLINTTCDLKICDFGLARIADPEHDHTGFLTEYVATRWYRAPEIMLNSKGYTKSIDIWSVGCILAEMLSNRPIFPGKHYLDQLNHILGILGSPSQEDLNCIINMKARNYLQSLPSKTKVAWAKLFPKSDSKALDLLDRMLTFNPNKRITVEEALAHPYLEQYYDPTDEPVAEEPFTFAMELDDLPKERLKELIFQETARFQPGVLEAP
- Experiment Summary: Inhibition of ERK1 (unknown origin) by microfluidic mobility shift assay
Readout: IC50 (µM)

>>> print(df.to_string())
                         sample_smiles  readout  reading_unit  endpoint_value
0  c1nc(N2CCC3(CCCNC3)CC2)c2nc[nH]c2n1     IC50            µM              37
1  c1nc(N2CCC3(CCCCN3)CC2)c2nc[nH]c2n1     IC50            µM              60

----------
- Measured On: Mitogen-activated protein kinase 1 (Homo sapiens)
- Sequence (P28482 whole entry): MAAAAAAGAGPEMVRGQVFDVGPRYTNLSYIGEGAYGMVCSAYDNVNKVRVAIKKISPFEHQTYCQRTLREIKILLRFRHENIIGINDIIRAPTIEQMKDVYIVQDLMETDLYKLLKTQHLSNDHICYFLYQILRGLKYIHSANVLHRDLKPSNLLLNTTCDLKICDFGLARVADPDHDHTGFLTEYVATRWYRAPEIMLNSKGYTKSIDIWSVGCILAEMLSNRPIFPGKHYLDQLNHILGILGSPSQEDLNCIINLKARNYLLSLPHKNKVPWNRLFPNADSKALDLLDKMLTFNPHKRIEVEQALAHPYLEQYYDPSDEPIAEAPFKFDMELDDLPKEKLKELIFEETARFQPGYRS
- Experiment Summary: Inhibition of ERK2 (unknown origin) by microfluidic mobility shift assay
Measured IC50, listed per entry.
Readout: IC50 (µM)

                         sample_smiles  endpoint_value
0  c1nc(N2CCC3(CCCNC3)CC2)c2nc[nH]c2n1              38
1  c1nc(N2CCC3(CCCCN3)CC2)c2nc[nH]c2n1              47

----------
- Measured On: Tyrosine-protein kinase Fyn (Homo sapiens)
- Sequence (P06241 2-537 limits assumed): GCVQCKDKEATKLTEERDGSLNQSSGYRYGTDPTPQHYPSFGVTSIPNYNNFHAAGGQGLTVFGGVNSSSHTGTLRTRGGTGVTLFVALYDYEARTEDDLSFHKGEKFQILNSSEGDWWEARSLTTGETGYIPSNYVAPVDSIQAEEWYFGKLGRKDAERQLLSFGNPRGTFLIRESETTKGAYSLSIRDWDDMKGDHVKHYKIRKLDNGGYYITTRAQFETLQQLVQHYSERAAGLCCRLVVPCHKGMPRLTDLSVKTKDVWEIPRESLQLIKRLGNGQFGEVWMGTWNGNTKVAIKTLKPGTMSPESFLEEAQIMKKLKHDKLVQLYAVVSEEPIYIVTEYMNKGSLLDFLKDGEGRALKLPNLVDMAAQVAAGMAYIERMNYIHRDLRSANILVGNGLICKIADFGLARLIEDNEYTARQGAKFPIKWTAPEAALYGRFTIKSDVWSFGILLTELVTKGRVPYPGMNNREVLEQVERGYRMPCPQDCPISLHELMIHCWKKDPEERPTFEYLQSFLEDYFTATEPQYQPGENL
- Experiment Summary: Inhibition of FYN (unknown origin) at 30 uM by microfluidic mobility shift assay relative to control
# inhibition values compiled below
Readout: inhibition (%)

                                    molecule  reading_unit  endpoint_value
 0  O=S(=O)(c1cccc2cnccc12)N1CCC2(CC1)CC(O)CCN2 (racemic)             %               9
 1  O=S(=O)(c1cccc2cnccc12)N1CCC2(CCC(O)CN2)CC1 (racemic)             %              17
 2  CNC(=O)C1CCC2(CCN(c3ncnc4[nH]cnc34)CC2)NC1 (racemic)             %               8
 3  O=S(=O)(c1cccc2cnccc12)N1CCCC2(CCNCC2)C1             %               2
 4  CN(C)C(=O)C1CCC2(CCN(c3ncnc4[nH]cnc34)CC2)NC1 (racemic)             %               0
 5  O=S(=O)(NCCNC/C=C/c1ccc(Br)cc1)c1cccc2cnccc12             %              14
 6  c1ccc(CC2CCNC3(CCN(c4ncnc5[nH]cnc45)CC3)C2)cc1 (racemic)             %              28
 7  O=S(=O)(c1cccc2cnccc12)N1CCC2(CCCCN2)CC1             %               9
 8   O=S(=O)(c1cccc2cnccc12)N1CCC2(CCNC2)CC1             %               1
 9        c1nc(N2CCC3(CCNC3)CC2)c2nc[nH]c2n1             %              84
10       c1nc(N2CCC3(CCCNC3)CC2)c2nc[nH]c2n1             %              63
11  c1nc(N2CCCC3(CCCNC3)C2)c2nc[nH]c2n1 (stereo not drawn)             %               8
12       c1nc(N2CCC3(CCCCN3)CC2)c2nc[nH]c2n1             %              34
13  OC1CCC2(CCN(c3ncnc4[nH]cnc34)CC2)NC1 (racemic)             %              18
14     O=S(=O)(c1cccc2cnccc12)N1CCCC12CCNCC2             %               1
15  c1ccc(C2CCC3(CCN(c4ncnc5[nH]cnc45)CC3)NC2)cc1 (stereo not drawn)             %              18
16  O=C(C1CCC2(CCN(c3ncnc4[nH]cnc34)CC2)NC1)N1CCOCC1 (racemic)             %               0
17  O=S(=O)(c1cccc2cnccc12)N1CCCC2(CCCNC2)C1 (stereo not drawn)             %              14
18  OCC1CCC2(CCN(c3ncnc4[nH]cnc34)CC2)NC1 (racemic)             %               1
19        c1nc(N2CCC3(CCCN3)CC2)c2nc[nH]c2n1             %              31
20          c1nc(N2CCCC23CCNCC3)c2nc[nH]c2n1             %              14
21       c1nc(N2CCC3(CCCCO3)CC2)c2nc[nH]c2n1             %              97
22       c1nc(N2CCC3(CCCCC3)CC2)c2nc[nH]c2n1             %              33
